Consider the following compounds; for each one, report its IC50.
biological target: CA (Human immunodeficiency virus type 1 group M subtype B); construct: a fusion protein of CA with glutathione-S-transferase (CA-GST); assay: AlphaScreen: inhibition of CAI-biotin peptide binding to CA-GST; conditions: inhibition of CAI binding to CA (CA-GST fusion); compounds screened at 0.5-100 µM; read-out: α screen IC50
Structures can show the parent of a compound that is named as a salt.
The response must be a number in µM with no trailing unit.

Data request: Supply measured IC50 of CCOC(=O)c1ccc(Nc2ccnc(-c3cccnc3)n2)cc1 [AMR-722, hydrochloride] in your reply.
Data returned: 19

Data request: Provide only the value of recorded IC50 for O=C(O)c1ccc(Nc2ccnc(-c3cccnc3)n2)cc1Cl [AMR-802, hydrochloride]
Data returned: 25

Data request: Please report the measured IC50 for CCOC(=O)c1ccc(Nc2cc(C)nc(-c3cccnc3)n2)cc1 [AMR-778, hydrochloride]
Data returned: 21

Data request: Let me know recorded IC50 for O=C(NCCF)c1ccc(Nc2ccnc(-c3cccnc3)n2)c(F)c1 [AMR-825, hydrochloride] , thanks.
Data returned: 73
